Molecular target: Histamine H2 receptor (Cavia porcellus, UniProt P47747)
Sequence (P47747 whole entry): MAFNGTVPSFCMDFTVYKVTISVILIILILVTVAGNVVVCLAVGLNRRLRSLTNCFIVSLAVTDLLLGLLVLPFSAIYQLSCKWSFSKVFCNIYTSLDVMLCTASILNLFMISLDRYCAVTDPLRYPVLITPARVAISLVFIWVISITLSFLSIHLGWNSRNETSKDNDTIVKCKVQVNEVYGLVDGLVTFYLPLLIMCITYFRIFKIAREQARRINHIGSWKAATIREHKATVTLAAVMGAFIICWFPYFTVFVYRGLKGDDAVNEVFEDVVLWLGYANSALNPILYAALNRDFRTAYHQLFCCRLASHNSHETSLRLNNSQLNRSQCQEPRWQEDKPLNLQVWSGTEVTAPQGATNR
Experiment: Antagonistic activity against H2 receptor in guinea pig.
pKd: −log10 of the molar value.

- given_smiles: "Cc1nc[nH]c1CSCCNC(=N)NCCCc1cn(C)cn1"
  pKd: 5.80

====

Target: UniProt P47747
Experiment: Antagonistic activity against H2 receptor in guinea pig was evaluated

- given_smiles: "CSC(=NCCSCc1[nH]cnc1C)NCCCc1cnc[nH]1"
  system: "UniProt P47747"
  Kd (µM): 17.8
